Hi there, I'd appreciate the recorded patients with anti-drug antibodies for every entry that follows.
- Protocol Notes: patients with anti-drug antibodies; higher = more immunogenic
State just the number; it will be interpreted in %.

[ask] I'd like to know its patients with anti-drug antibodies. The protein in question is unnamed (protein) chain 1: QVQLQQSGAEVKKPGASVKVSCEASGYTFPSYVLHWVKQAPGQGLEWIGYINPYNDGTQYNEKFKGKATLTRDTSINTAYMELSRLRSDDTAVYYCARGFGGSYGFAYWGQGTLVTVSS chain 2: DIQLTQSPSSLSASVGDRVTMTCSASSSVSSSYLYWYQQKPGKAPKLWIYSTSNLASGVPARFSGSGSGTDFTLTISSLQPEDSASYFCHQWNRYPYTFGGGTRLEIK
[reply] 10

[ask] I'd like to know its patients with anti-drug antibodies. The protein in question is unnamed (protein) chain 1: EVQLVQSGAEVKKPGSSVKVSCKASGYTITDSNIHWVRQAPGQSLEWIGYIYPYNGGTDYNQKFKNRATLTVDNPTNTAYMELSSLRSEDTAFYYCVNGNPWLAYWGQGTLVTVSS chain 2: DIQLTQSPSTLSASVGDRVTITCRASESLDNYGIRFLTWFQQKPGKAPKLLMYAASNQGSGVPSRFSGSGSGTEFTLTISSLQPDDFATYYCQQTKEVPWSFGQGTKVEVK
[reply] 0

[ask] I'd like to know its patients with anti-drug antibodies. The protein in question is unnamed (protein) chain 1: EVQLVESGGGLVQPGGSLRLSCAVSGLSLTSNSVNWIRQAPGKGLEWVGLIWSNGDTDYNSAIKSRFTISRDTSKSTVYLQMNSLRAEDTAVYYCAREYYGYFDYWGQGTLVTVSS chain 2: DIQMTQSPSSLSASVGDRVTITCLASEGISSYLAWYQQKPGKAPKLLIYGANSLQTGVPSRFSGSGSATDYTLTISSLQPEDFATYYCQQSYKFPNTFGQGTKVEVK
[reply] 5
